Biological target: UniProt:P10415
Sequence (P10415 whole entry): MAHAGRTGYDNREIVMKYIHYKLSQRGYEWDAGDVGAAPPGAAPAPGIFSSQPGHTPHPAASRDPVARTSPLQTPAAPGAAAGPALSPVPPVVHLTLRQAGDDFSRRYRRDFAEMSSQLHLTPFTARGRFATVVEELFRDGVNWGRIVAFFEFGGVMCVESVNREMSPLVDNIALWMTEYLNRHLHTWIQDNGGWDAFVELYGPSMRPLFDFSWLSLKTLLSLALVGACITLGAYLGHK
Test: TR-FRET binding assay, GST-Bcl-2 with F-Bak peptide probe
Conditions: ratio of TR-FRET Ki values, Bcl-XL over Bcl-2
quantity: Binding selectivity ratio (Bcl-XL Ki/Bcl-2 Ki)

smiles-structure	result
CC1(C)CCC(CN2CCN(c3ccc(C(=O)NS(=O)(=O)c4cnc(OCC5(F)CCOCC5)c(Cl)c4)c(Oc4cccc5[nH]ccc45)c3)CC2)=C(c2ccc(Cl)cc2)C1	1394.8
CN1CCC(Nc2ccc(S(=O)(=O)NC(=O)c3ccc(N4CCN(CC5=C(c6ccc(Cl)cc6)CC(C)(C)CC5)CC4)cc3Nc3cccnc3)cc2[N+](=O)[O-])CC1	>5705.9
CC1(C)CCC(CN2CCN(c3ccc(C(=O)NS(=O)(=O)c4cnc(O[C@@H]5CCN(C(CF)CF)C5)c(Cl)c4)c(Oc4cccc5[nH]ncc45)c3)CC2)=C(c2ccc(Cl)cc2)C1	1459.4
CN(C)CC(=O)N1CCO[C@@H](COc2ncc(S(=O)(=O)NC(=O)c3ccc(N4CCN(CC5=C(c6ccc(Cl)cc6)CC(C)(C)CC5)CC4)cc3Oc3cccc4[nH]ncc34)cc2Cl)C1	604.2
CN(C)CC(=O)N1CC[C@@H](Nc2ccc(S(=O)(=O)NC(=O)c3ccc(N4CCN(CC5=C(c6ccc(Cl)cc6)CC(C)(C)CC5)CC4)cc3Oc3cccc4[nH]cnc34)cc2[N+](=O)[O-])C1	99.8
